This collection of values is drawn from ChEMBL document CHEMBL1782048.

Measured half-life, listed per entry.
PROCEDURE DETAILS: Half life in rat
Assay type: ADME, organism-based
MEASUREMENT PARAMETERS: in vivo
Value expressed in min; do not type the unit.

>  <COMPOUND STRING>
CCCc1cnc(N)c(CNC(=S)Nc2ccc(NC(=O)OC(C)(C)C)cc2)n1

>  <READOUT TYPE>
half-life

>  <REPORTED MEASUREMENT>
48

$$$$

Now for another entry.
Prompt: Using the record for CCCc1cnc(N)c(CNC(=S)Nc2ccc3[nH]c(=O)oc3c2)n1 , report its half-life.
Completion: 18

###

PROCEDURE DETAILS: Clearance in rat
Type: ADME, organism-based
MEASUREMENT PARAMETERS: in vivo
READOUT TYPE: clearance

>  <COMPOUND STRING>
CCCc1cnc(N)c(CNC(=S)Nc2ccc3[nH]c(=O)oc3c2)n1

>  <clearance>
12.9 mL/min/kg

$$$$

Now for another entry.
Prompt: Using the record for CCCc1cnc(N)c(CNC(=S)Nc2ccc(NC(=O)OC(C)(C)C)cc2)n1 , report its clearance.
Completion: 2.5 mL/min/kg

###

EXPERIMENTAL SYSTEM: MAP kinase-activated protein kinase 2 (Homo sapiens, UniProt P49137)
Sequence (P49137 whole entry): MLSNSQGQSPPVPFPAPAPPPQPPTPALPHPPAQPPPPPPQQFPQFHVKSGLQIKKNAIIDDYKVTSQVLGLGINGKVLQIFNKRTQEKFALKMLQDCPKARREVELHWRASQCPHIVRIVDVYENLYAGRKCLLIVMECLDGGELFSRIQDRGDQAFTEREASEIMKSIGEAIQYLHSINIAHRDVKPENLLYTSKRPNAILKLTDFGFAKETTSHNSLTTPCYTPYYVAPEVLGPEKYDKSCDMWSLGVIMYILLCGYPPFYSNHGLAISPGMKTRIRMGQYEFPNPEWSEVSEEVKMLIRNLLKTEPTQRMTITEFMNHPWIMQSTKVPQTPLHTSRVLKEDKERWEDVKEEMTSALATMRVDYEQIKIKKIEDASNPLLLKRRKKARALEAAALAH
PROCEDURE DETAILS: Inhibition of MK2 using biotin-LCAYSRALSRQLSSGVSEIRH substrate
Measured IC50, listed per entry.
Value expressed in µM; do not type the unit.

>  <COMPOUND STRING>
CC(C)NC(=S)NCc1nc(Cl)cnc1N

>  <EXPERIMENTAL SYSTEM>
MAP kinase-activated protein kinase 2 (Homo sapiens, UniProt P49137)

>  <UNIT OF MEASURE>
µM

>  <IC50>
13

$$$$
>  <COMPOUND STRING>
Nc1ccc(NC(=S)NCc2nc(Cl)cnc2N)cc1

>  <EXPERIMENTAL SYSTEM>
MAP kinase-activated protein kinase 2 (Homo sapiens, UniProt P49137)

>  <UNIT OF MEASURE>
µM

>  <IC50>
2

$$$$
>  <COMPOUND STRING>
Nc1ncc(Cl)nc1CNC(=S)Nc1ccc(Br)cc1

>  <EXPERIMENTAL SYSTEM>
MAP kinase-activated protein kinase 2 (Homo sapiens, UniProt P49137)

>  <UNIT OF MEASURE>
µM

>  <IC50>
3.1

$$$$

Prompt: Short answer please: IC50, MAP kinase-activated protein kinase 2 (Homo sapiens, UniProt P49137), entry Nc1ncc(C2CC2)nc1CNC(=S)Nc1ccc2[nH]c(=O)oc2c1
Completion: 0.015

###

EXPERIMENTAL SYSTEM: MAP kinase-activated protein kinase 2 (Homo sapiens)
PROCEDURE DETAILS: Inhibition of MK2 using biotin-LCAYSRALSRQLSSGVSEIRH substrate
pIC50: −log10 of the molar value.
pIC50 below 5 gives not fulfilled; pIC50 at or above it gives fulfilled.

Below are worked cases with known answers.
>  <COMPOUND STRING>
Cc1ccccc1NC(=S)NCc1nc(Cl)cnc1N

>  <LABEL>
fulfilled

$$$$
>  <COMPOUND STRING>
Cc1cnc(N)c(CNC(=S)Nc2ccc(NC(=O)Cc3ccccc3)cc2)n1

>  <LABEL>
fulfilled

$$$$
>  <COMPOUND STRING>
Nc1ncc(Cl)nc1CNC(=S)Nc1ccc(Cl)cc1

>  <LABEL>
fulfilled

$$$$
>  <COMPOUND STRING>
Nc1ncc(Cl)nc1CNC(=S)NC(=O)c1ccccc1

>  <LABEL>
not fulfilled

$$$$
>  <COMPOUND STRING>
Cc1cnc(N)c(CNC(=S)Nc2ccc3[nH]c(=O)[nH]c3c2)n1

>  <LABEL>
not fulfilled

$$$$

Prompt: Could you tell me if the measured pIC50 of Nc1ncc(Cl)nc1CNC(=S)Nc1ccccc1F reaches 5 or more?
Completion: fulfilled

Prompt: Could you tell me if the measured pIC50 of CN(C)c1nc(N)c(CNC(=S)Nc2ccccc2)nc1Cl reaches 5 or more?
Completion: not fulfilled

Prompt: Could you tell me if the measured pIC50 of Nc1ncc(Cl)nc1CNC(=S)Nc1ccccc1-c1ccccc1 reaches 5 or more?
Completion: not fulfilled

Prompt: Could you tell me if the measured pIC50 of Nc1ncc(Cl)nc1CNC(=S)Nc1ccc(Cl)c(Cl)c1 reaches 5 or more?
Completion: not fulfilled

Prompt: Could you tell me if the measured pIC50 of Cc1cnc(N)c(CNC(=S)Nc2ccc3[nH]c(=O)sc3c2)n1 reaches 5 or more?
Completion: not fulfilled

Prompt: Could you tell me if the measured pIC50 of Cc1cnc(N)c(CNC(=S)Nc2ccc3oc(=O)[nH]c3c2)n1 reaches 5 or more?
Completion: not fulfilled

Prompt: Could you tell me if the measured pIC50 of Cc1cnc(N)c(CNC(=S)Nc2ccc(NC(=O)c3ccccc3)cc2)n1 reaches 5 or more?
Completion: fulfilled

Prompt: Could you tell me if the measured pIC50 of Cc1cnc(N)c(CNC(=S)Nc2ccc3c(c2)CC(=O)N3)n1 reaches 5 or more?
Completion: not fulfilled
